Target: Proto-oncogene tyrosine-protein kinase Src (Homo sapiens) (UniProt P12931)
Sequence (P12931 2-536 limits assumed): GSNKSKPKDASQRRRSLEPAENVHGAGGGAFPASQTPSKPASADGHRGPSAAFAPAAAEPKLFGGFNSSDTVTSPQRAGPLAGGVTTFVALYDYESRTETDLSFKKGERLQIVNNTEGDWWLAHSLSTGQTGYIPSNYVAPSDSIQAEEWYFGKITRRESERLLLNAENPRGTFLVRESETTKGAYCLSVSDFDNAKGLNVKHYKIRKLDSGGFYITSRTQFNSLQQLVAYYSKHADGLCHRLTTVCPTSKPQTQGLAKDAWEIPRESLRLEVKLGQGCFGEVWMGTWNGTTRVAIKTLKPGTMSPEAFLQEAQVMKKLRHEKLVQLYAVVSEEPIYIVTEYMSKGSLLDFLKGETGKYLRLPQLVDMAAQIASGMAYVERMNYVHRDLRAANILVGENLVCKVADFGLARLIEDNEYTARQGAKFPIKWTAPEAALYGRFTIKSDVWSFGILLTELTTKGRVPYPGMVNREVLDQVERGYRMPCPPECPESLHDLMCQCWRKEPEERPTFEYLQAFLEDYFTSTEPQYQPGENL
Details: at 1 µM
Measured residual activity, listed per entry for reference.
Supply the numeric figure in %, leaving out any unit text.

The cases that follow already have their residual activity on record.
In [3]: df
Out[3]:
                                 smiles_str  readout_value
0  O=C(O)c1ccc2c3c1cccc3c(=O)n1c3ccccc3nc21            120
1   Nc1ccc2ncnc(NCCc3ccc(Oc4ccccc4)cc3)c2c1            110
2  O=C1Nc2ccc(Br)cc2/C1=C\c1cc2c([nH]1)CCCC2             73

Bench note: what residual activity did CC[n+]1c(/C=C/N(C)c2ccccc2)n(-c2ccccc2)c2ccc(-c3nc4ccccc4s3)cc21 show?
85

Bench note: what residual activity did O=C1c2ccccc2-[n+]2ccc3c([nH]c4ccccc43)c21 show?
111

Bench note: what residual activity did CNc1cc2c(Nc3cccc(Br)c3)ncnc2cn1 show?
86

----------
Target: Ribosomal protein S6 kinase alpha-5 (Homo sapiens) (UniProt O75582)
Sequence (O75582 whole entry, looked up): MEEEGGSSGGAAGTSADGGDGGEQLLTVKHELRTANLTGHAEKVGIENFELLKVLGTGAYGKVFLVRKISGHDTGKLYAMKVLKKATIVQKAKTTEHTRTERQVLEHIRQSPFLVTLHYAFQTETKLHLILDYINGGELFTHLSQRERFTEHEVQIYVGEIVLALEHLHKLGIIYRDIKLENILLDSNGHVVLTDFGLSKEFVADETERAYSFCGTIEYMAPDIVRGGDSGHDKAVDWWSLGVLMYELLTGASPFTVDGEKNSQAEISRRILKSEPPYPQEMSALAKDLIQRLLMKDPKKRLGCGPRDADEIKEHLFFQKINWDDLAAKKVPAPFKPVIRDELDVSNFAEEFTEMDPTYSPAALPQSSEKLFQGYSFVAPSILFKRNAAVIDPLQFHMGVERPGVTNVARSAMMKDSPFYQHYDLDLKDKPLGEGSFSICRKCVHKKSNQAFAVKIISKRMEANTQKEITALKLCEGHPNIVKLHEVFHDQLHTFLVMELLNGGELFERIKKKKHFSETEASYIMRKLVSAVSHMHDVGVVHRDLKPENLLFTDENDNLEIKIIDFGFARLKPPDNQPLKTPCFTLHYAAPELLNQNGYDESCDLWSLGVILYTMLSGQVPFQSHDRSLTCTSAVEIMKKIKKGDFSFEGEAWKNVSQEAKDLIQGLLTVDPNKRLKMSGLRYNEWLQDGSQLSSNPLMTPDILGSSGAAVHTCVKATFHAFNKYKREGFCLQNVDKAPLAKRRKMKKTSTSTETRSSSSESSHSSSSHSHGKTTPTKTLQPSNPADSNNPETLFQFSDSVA
Details: at 10 µM
property_label: residual activity (%)
Supply the numeric figure in %, leaving out any unit text.

In [3]: df
Out[3]:
                                 smiles_str     property_label  readout_value
0  O=C(Nc1cccc(Nc2nccc(Nc3cccc(C(F)(F)F)c3)n2)c1)C1CC1  residual activity             89
1           Cc1nc2cc3nc(-c4cccs4)cnc3cc2n1C  residual activity            101
2  CC(=O)O/N=C1\C(=C2\C(=O)Nc3cc(Br)ccc32)Nc2ccccc21  residual activity             85
3  Nc1cccc(-c2cc3c(Oc4cccc(O)c4)ncnc3[nH]2)c1  residual activity            117
4         COc1ccc(OC)c2c(=S)c3ccccc3[nH]c12  residual activity            122

Here is another compound to look at.
Bench note: what residual activity did COc1ccc(CNc2nc(N(CCO)CCO)nc3c2ncn3C(C)C)cc1 show?
96

----------
Biological target: Ephrin type-A receptor 4 (Homo sapiens)
Conditions: at 10 µM
property_label: residual activity (%)
Supply the numeric figure in %, leaving out any unit text.

The cases that follow already have their residual activity on record.
                            smiles_str     property_label  readout_value
0            CC(=O)c1ccc(N2CCOCC2)cc1O  residual activity            104
1     COc1cccc(-c2cc(=O)c3ccccc3o2)c1N  residual activity            108
2  CCOc1cc2ncnc(Nc3cccc(Br)c3)c2cc1OCC  residual activity             31

Bench note: what residual activity did O=C1c2ccccc2-[n+]2ccc3c([nH]c4ccccc43)c21 show?
104

Bench note: what residual activity did Cn1cc(/C=C2\C(=O)Nc3ccc(S(N)(=O)=O)cc32)c2ccccc21 show?
89

Bench note: what residual activity did O=Nc1c(-c2c(O)[nH]c3ccccc23)[nH]c2ccccc12 show?
83

Bench note: what residual activity did Oc1c2ccccc2c2c3c(cccc13)N=N2 show?
106

Bench note: what residual activity did O=C1Nc2cc(Br)ccc2/C1=C1/Nc2ccccc2/C1=N\O show?
98

Bench note: what residual activity did Cn1cnc2cc3c(Nc4cccc(Br)c4)ncnc3cc21 show?
88

Bench note: what residual activity did O=C1NC(=O)/C(=C\c2ccc3nccnc3c2)S1 show?
106

Bench note: what residual activity did CC(C)n1cnc2/c(=N/c3cccc(Cl)c3)nc(NCCO)[nH]c21 show?
75

Bench note: what residual activity did COc1ccc(S(=O)(=O)N(CCO)c2ccccc2CN(C)C/C=C/c2ccc(Cl)cc2)cc1 show?
97
